The following compounds are listed with their measured inhibition values.
Molecular target: Cytochrome P450 2C19 (Homo sapiens) (UniProt P33261)
Sequence (P33261 whole entry, looked up): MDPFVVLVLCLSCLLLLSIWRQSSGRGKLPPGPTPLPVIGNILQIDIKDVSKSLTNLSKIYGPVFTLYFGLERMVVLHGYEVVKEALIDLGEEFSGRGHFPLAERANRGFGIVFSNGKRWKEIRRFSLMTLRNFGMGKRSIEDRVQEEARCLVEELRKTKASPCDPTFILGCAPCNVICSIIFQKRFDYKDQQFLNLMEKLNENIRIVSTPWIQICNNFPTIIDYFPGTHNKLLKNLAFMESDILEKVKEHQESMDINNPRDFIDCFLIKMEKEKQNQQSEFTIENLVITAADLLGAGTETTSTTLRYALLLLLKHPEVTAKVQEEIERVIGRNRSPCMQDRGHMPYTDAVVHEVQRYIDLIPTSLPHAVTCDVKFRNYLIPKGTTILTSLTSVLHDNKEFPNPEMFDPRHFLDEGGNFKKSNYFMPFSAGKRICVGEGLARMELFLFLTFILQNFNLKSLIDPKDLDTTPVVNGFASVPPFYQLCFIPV
Assay: blockers of cytochrome P450 2C19 activity – biochemical, luminescence, ADME assay, primary screen (AID 778);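 further: plate controls were negative control wells for no effect and 2.5 mM tranylcypromine positive control for full effect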
Settings: CYP2C19 Supersomes, luciferin-H EGE luminescence, 30 min; at 5 µM; active compounds read high
About 20,000 (21%) of roughly 96,000 compounds were called active. These entries were drawn from the full list.
attributeMeasured: inhibition (%)

| compound | measurementTarget | attributeMeasured | unitOfMeasure | dataValue |
| --- | --- | --- | --- | --- |
| CCCc1ccc(OCC(=O)NNC(=S)NC(=O)c2ccco2)cc1 | Cytochrome P450 2C19 (Homo sapiens) (UniProt P33261) | inhibition | % | 8.7 |
| O=C(CN1CCN(c2ccccn2)CC1)NC1CCCCC1 | Cytochrome P450 2C19 (Homo sapiens) (UniProt P33261) | inhibition | % | 6.6 |
| COc1ccc(C(=O)NC(=S)NNC(=O)CCc2ccccc2)cc1 | Cytochrome P450 2C19 (Homo sapiens) (UniProt P33261) | inhibition | % | -0.6 |
| COc1cccc2c1OCC1COc3c(c(=O)n(C)c(=O)n3C)C21 (stereo unspecified) | Cytochrome P450 2C19 (Homo sapiens) (UniProt P33261) | inhibition | % | -1 |
| CCOC(=O)c1c(NC(=O)c2ccc(Br)o2)sc2c1CCCC2 | Cytochrome P450 2C19 (Homo sapiens) (UniProt P33261) | inhibition | % | -7.9 |
| O=C(CCN1C(=O)c2ccccc2C1=O)NCCN1CCOCC1 | Cytochrome P450 2C19 (Homo sapiens) (UniProt P33261) | inhibition | % | -17.4 |
| Cc1ccc(C)c(N2CCN(C(=O)CCCCn3c(=O)[nH]c4ccccc4c3=O)CC2)c1 | Cytochrome P450 2C19 (Homo sapiens) (UniProt P33261) | inhibition | % | 46.3 |
| O=C(NC1CCCCC1)n1c(=O)oc2cc(S(=O)(=O)N3CCCCC3)ccc21 | Cytochrome P450 2C19 (Homo sapiens) (UniProt P33261) | inhibition | % | 6.9 |
| COc1cc2c(cc1OC)C(c1ccncc1)CC(=O)N2 (stereo unspecified) | Cytochrome P450 2C19 (Homo sapiens) (UniProt P33261) | inhibition | % | 16.4 |
| O=C1CCC(C(=O)Nc2ccc(OC(F)F)cc2)N1 (stereo unspecified) | Cytochrome P450 2C19 (Homo sapiens) (UniProt P33261) | inhibition | % | 0 |
| COc1ccc(C(=O)Nc2ncc3c(n2)-c2ccccc2CC3)cc1 | Cytochrome P450 2C19 (Homo sapiens) (UniProt P33261) | inhibition | % | 5.2 |

###

Molecular target: Cytochrome P450 2C19 (Homo sapiens)
Assay: blockers of cytochrome P450 2C19 activity – biochemical, luminescence, ADME assay, primary screen (AID 778)
Conditions: CYP2C19 Supersomes, luciferin-H EGE luminescence, 30 min; at 5 µM; active compounds read high
The whole screen tested about 96,000 compounds, of which about 20,000 (21%) were called active. Not all results are given here.
The following compounds are listed with their measured inhibition values.

| compound | inhibition, % |
| --- | --- |
| COc1ccc(NC(=O)c2c(SC)nsc2SC)cc1 | 7.1 |
| CN(C)/C=C/c1c(C#N)c(=O)ncn1Cc1ccccc1 | 12.1 |
| COc1ccc(N2C(=O)CC(N3CCC(C(N)=O)CC3)C2=O)cc1 (stereo unspecified) | -28.9 |
| CC(=O)CCS(=O)(=O)c1ccc(C)c(C)c1 | 35.1 |
| Cc1cc(C)n(-c2c(F)c(F)c(COC(=O)c3ccccc3)c(F)c2F)n1 | 37.2 |
| COc1ccc(Nc2nc(=O)[nH]nc2C)cc1 | 5 |

###

The following compounds are listed with their measured inhibition values.
Biological target: Cytochrome P450 2C19 (Homo sapiens) (UniProt P33261)
Assay: blockers of cytochrome P450 2C19 activity – biochemical, luminescence, ADME assay, primary screen (AID 778);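 further: plate controls were negative control wells for no effect and 2.5 mM tranylcypromine positive control for full effect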
Details: CYP2C19 Supersomes, luciferin-H EGE luminescence, 30 min; at 5 µM; active compounds read high
Screen size: about 96,000 compounds; about 20,000 (21%) were called active. A selection follows.

| compound | measurementTarget | inhibition / % |
| --- | --- | --- |
| COc1ccc(NC(=O)C2CCCN(S(=O)(=O)c3cccc4cccnc34)C2)cc1 (stereo unspecified) | Cytochrome P450 2C19 (Homo sapiens) (UniProt P33261) | 17.5 |
| CCCC(NS(=O)(=O)c1ccc(OC)cc1)C(=O)O (stereo unspecified) | Cytochrome P450 2C19 (Homo sapiens) (UniProt P33261) | -12.7 |
| CCCNC(=O)Nc1ccccc1C(=O)Nc1ccc(OC)cc1 | Cytochrome P450 2C19 (Homo sapiens) (UniProt P33261) | 40.1 |
| Cc1csc(NC(=O)CN2CCCCCC2)n1 | Cytochrome P450 2C19 (Homo sapiens) (UniProt P33261) | 22.8 |
| O=C(Cn1cc2c(n1)CCCCC2)NCCN1CCOCC1 | Cytochrome P450 2C19 (Homo sapiens) (UniProt P33261) | -10.3 |
| O=C(c1ccco1)N1CCN(C(=O)C2CCCN(S(=O)(=O)c3cccc4nsnc34)C2)CC1 (stereo unspecified) | Cytochrome P450 2C19 (Homo sapiens) (UniProt P33261) | 1.6 |
| O=C(Nc1ccn(Cc2ccccc2F)n1)c1ccc(COc2ccc(Cl)cc2Cl)o1 | Cytochrome P450 2C19 (Homo sapiens) (UniProt P33261) | 57.8 |
| O=C(O)c1ccc(COc2c(F)c(F)cc(F)c2F)o1 | Cytochrome P450 2C19 (Homo sapiens) (UniProt P33261) | -3.2 |
| S=c1[nH]nc(-c2ccc(Cl)cc2)n1CC1CCCO1 (stereo unspecified) | Cytochrome P450 2C19 (Homo sapiens) (UniProt P33261) | 41.3 |
| Cc1nc(SCC(=O)N2CCc3ccccc3C2)c2c(C)c(C)sc2n1 | Cytochrome P450 2C19 (Homo sapiens) (UniProt P33261) | 20 |
| CCOc1ccc(OCc2ccc(C(=O)Nc3cccc(C)n3)o2)cc1 | Cytochrome P450 2C19 (Homo sapiens) (UniProt P33261) | 35.8 |

###

Target: Cytochrome P450 2C19 (Homo sapiens) (UniProt P33261)
Assay: blockers of cytochrome P450 2C19 activity – biochemical, luminescence, ADME assay, primary screen (AID 778);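 further: plate controls were negative control wells for no effect and 2.5 mM tranylcypromine positive control for full effect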
Settings: CYP2C19 Supersomes, luciferin-H EGE luminescence, 30 min; at 5 µM; active compounds read high
The campaign covered roughly 96,000 compounds. About 20,000 (21%) were called active. These entries were drawn from the full list.
attributeMeasured: inhibition (%)

| substanceSmiles | attributeMeasured | dataValue |
| --- | --- | --- |
| O=c1cc(CO)oc(CN2CCC(Cc3ccccc3)CC2)c1O | inhibition | 15.2 |
| CCCCCCc1cc2cc(-c3nnc(-c4ccccc4)o3)c(=O)oc2cc1O | inhibition | 27.4 |
| C/C(=N\NC(=O)c1nc(C)cc(C)n1)c1ccccc1 | inhibition | -4 |
| Cc1ccc(-c2nn(C(C)(C)C)c3ncnc(N)c23)cc1 | inhibition | 38.5 |
| Cc1[nH]n(-c2ccc([N+](=O)[O-])cc2)c(=O)c1C=NCCN1CCN(C(=O)c2ccccc2F)CC1 | inhibition | 9.2 |

###

Target: Cytochrome P450 2C19 (Homo sapiens) (UniProt P33261)
Experiment: blockers of cytochrome P450 2C19 activity – biochemical, luminescence, ADME assay, primary screen (AID 778);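 further: plate controls were negative control wells for no effect and 2.5 mM tranylcypromine positive control for full effect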
Conditions: CYP2C19 Supersomes, luciferin-H EGE luminescence, 30 min; at 5 µM; active compounds read high
About 20,000 (21%) of roughly 96,000 compounds were called active. A selection follows.
Decision: inhibition >= 30% yields T, all other cases yield F.

| compound | measurementTarget | discreteLabel |
| --- | --- | --- |
| CCN1C(=O)/C(=C2\SC(N3CCCCC3)=NC2=O)c2ccccc21 | Cytochrome P450 2C19 (Homo sapiens) (UniProt P33261) | F |
| Cc1cc(N2C(=O)C(=O)/C(=C(/O)c3ccc(Cl)cc3)C2c2cccc(Br)c2)no1 (stereo not given) | Cytochrome P450 2C19 (Homo sapiens) (UniProt P33261) | F |
| COc1ccc(CNC(=O)c2cc3c(=O)n4ccccc4nc3n(CC3CCCO3)c2=N)cc1 (stereo not given) | Cytochrome P450 2C19 (Homo sapiens) (UniProt P33261) | F |
| O=Cc1c(N2CCN(c3cccc(Cl)c3)CC2)nc2ccccn2c1=O | Cytochrome P450 2C19 (Homo sapiens) (UniProt P33261) | T |
| COc1ccc(CCn2c(=N)c(C(=O)NCc3ccco3)cc3c(=O)n4cccc(C)c4nc32)cc1 | Cytochrome P450 2C19 (Homo sapiens) (UniProt P33261) | F |
| CCN1C(=O)/C(=C\N2CCN(c3cccc(Cl)c3)CC2)SC1=S | Cytochrome P450 2C19 (Homo sapiens) (UniProt P33261) | F |
| CC(C)COC(=O)C1C2C=CC3(CN(C(C)c4ccc(Br)cc4)C(=O)C13)O2 (stereo not given) | Cytochrome P450 2C19 (Homo sapiens) (UniProt P33261) | T |
| CCOc1cc2[nH]c(=O)n(CCC(=O)NCc3ccc(OC)cc3)c(=O)c2cc1OCC | Cytochrome P450 2C19 (Homo sapiens) (UniProt P33261) | F |
| O=S1(=O)CC(NCc2ccccc2)C(Nc2ccc(Cl)cc2)C1 (stereo not given) | Cytochrome P450 2C19 (Homo sapiens) (UniProt P33261) | T |
| CCOc1ccc(CCNC(=O)C(CC)n2nc(C)n3c(cc4sccc43)c2=O)cc1OCC (stereo not given) | Cytochrome P450 2C19 (Homo sapiens) (UniProt P33261) | T |
